# credit: paper PMC10716780

target: human P450 11A1 (Homo sapiens, UniProt P05108); assay: Single-turnover kinetics of P450 11A1 with [1,2-3H]-cholesterol (radio-HPLC); type: biochemical; parameters: M A S T R S P R P F N E I P S P G D N; Met-Ala (N-terminal start residues in place of the transit peptide and Ile40) (N); made in house; host or cells: E. coli (P450 11A1 in C41(DE3); Adx and AdR in E. coli); conditions: 10-fold excess (high) Adx, time 5 s
For each record, write down the corresponding concentration in single-turnover reaction.
Your answer is read as µM, so omit the unit and give the number.

Fill in the blank: the reported concentration in single-turnover reaction of CC(C)CC[C@@H](O)[C@@H](C)[C@H]1CC[C@H]2[C@@H]3CC=C4C[C@@H](O)CC[C@]4(C)[C@H]3CC[C@]12C [22R-OH Chol, 22R-hydroxycholesterol] is ____.
0.1576

Query CC(C)CCC[C@@H](C)[C@H]1CC[C@H]2[C@@H]3CC=C4C[C@@H](O)CC[C@]4(C)[C@H]3CC[C@]12C [Cholesterol] next
2.84

And what about the molecule CC(=O)[C@H]1CC[C@H]2[C@@H]3CC=C4C[C@@H](O)CC[C@]4(C)[C@H]3CC[C@]12C [Pregnenolone] ?
1.311

Further, for CC(C)CC[C@@H](O)[C@](C)(O)[C@H]1CC[C@H]2[C@@H]3CC=C4C[C@@H](O)CC[C@]4(C)[C@H]3CC[C@]12C [20R,22R-(OH)2 Chol, (20R,22R)-Cholest-5-ene-3β,20,22-triol] ?
0.1911

----------
Give kcat for every item shown.
target: human P450 11A1 (Homo sapiens); assay: Steady-state conversion of sterols to pregnenolone by reconstituted P450 11A1 (UPLC-MS of dansyl hydrazone); type: biochemical; set-up: M A S T R S P R P F N E I P S P G D N; Met-Ala (N-terminal start residues in place of the transit peptide and Ile40) (N); made in house; host or cells: E. coli (P450 11A1 in C41(DE3); Adx and AdR in E. coli); conditions: 0.25 μM P450, 0.5 μM AdR, 10 μM Adx, 37 °C
Numbers only here, please. The scale is s⁻¹.

Notebook entry, human P450 11A1 (Homo sapiens) assay: kcat of CC(C)CC[C@@H](O)[C@@H](C)[C@H]1CC[C@H]2[C@@H]3CC=C4C[C@@H](O)CC[C@]4(C)[C@H]3CC[C@]12C [22R-OH Chol, 22R-hydroxycholesterol] = ?
0.152

Would you mind doing CC(C)CC[C@@H](O)[C@](C)(O)[C@H]1CC[C@H]2[C@@H]3CC=C4C[C@@H](O)CC[C@]4(C)[C@H]3CC[C@]12C [20R,22R-(OH)2 Chol, (20R,22R)-Cholest-5-ene-3β,20,22-triol] as well?
0.233

Item: CC(C)CC[C@H](O)[C@](C)(O)[C@H]1CC[C@H]2[C@@H]3CC=C4C[C@@H](O)CC[C@]4(C)[C@H]3CC[C@]12C [20R,22S-(OH)2 Chol, (20R,22S)-Cholest-5-ene 3β,20,22-triol]
0.0833

Consider next the compound CC(C)CCC[C@@H](C)[C@H]1CC[C@H]2[C@@H]3CC=C4C[C@@H](O)CC[C@]4(C)[C@H]3CC[C@]12C [Cholesterol] in the same way.
0.115

----------
Kindly supply the reported concentration in single-turnover reaction values for the records listed here.
Biological target: UniProt:P05108
Sequence (P05108 41-521 limits assumed): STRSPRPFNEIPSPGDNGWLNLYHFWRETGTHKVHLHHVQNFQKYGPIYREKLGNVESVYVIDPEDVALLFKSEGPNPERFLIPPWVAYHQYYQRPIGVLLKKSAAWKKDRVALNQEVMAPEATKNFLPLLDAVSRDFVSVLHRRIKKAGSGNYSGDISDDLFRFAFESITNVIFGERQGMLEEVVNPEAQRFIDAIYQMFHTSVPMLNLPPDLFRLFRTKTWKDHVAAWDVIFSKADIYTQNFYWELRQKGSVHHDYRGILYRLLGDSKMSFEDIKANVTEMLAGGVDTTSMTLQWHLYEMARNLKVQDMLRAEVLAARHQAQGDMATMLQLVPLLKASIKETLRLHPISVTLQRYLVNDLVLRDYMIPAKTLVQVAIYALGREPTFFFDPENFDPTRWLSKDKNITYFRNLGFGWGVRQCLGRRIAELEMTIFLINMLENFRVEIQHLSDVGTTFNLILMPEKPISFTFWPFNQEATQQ
Sequence (P00257 59-186 partner): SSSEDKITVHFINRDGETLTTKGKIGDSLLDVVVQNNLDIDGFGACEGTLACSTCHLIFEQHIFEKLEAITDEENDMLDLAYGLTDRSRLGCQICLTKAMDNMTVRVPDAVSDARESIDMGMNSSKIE
Assay: Single-turnover kinetics of P450 11A1 with [1,2-3H]-cholesterol (radio-HPLC)
Format: biochemical
Set-up: M A S T R S P R P F N E I P S P G D N; Met-Ala (N-terminal start residues in place of the transit peptide and Ile40) (N); made in house; host or cells: E. coli (P450 11A1 in C41(DE3); Adx and AdR in E. coli)
Details: 10-fold excess (high) Adx, time 2.5 s
All answers are understood in µM, so give the number only.

Please report the recorded concentration in single-turnover reaction for CC(=O)[C@H]1CC[C@H]2[C@@H]3CC=C4C[C@@H](O)CC[C@]4(C)[C@H]3CC[C@]12C [Pregnenolone] .
0.7647

# iterate: CC(C)CC[C@@H](O)[C@](C)(O)[C@H]1CC[C@H]2[C@@H]3CC=C4C[C@@H](O)CC[C@]4(C)[C@H]3CC[C@]12C [20R,22R-(OH)2 Chol, (20R,22R)-Cholest-5-ene-3β,20,22-triol]
0.2051

Next: CC(C)CC[C@@H](O)[C@@H](C)[C@H]1CC[C@H]2[C@@H]3CC=C4C[C@@H](O)CC[C@]4(C)[C@H]3CC[C@]12C [22R-OH Chol, 22R-hydroxycholesterol]
0.1649

Another: CC(C)CCC[C@@H](C)[C@H]1CC[C@H]2[C@@H]3CC=C4C[C@@H](O)CC[C@]4(C)[C@H]3CC[C@]12C [Cholesterol]
3.365

----------
Molecular target: human P450 11A1 (Homo sapiens, UniProt P05108)
Sequence (P05108 41-521 limits assumed): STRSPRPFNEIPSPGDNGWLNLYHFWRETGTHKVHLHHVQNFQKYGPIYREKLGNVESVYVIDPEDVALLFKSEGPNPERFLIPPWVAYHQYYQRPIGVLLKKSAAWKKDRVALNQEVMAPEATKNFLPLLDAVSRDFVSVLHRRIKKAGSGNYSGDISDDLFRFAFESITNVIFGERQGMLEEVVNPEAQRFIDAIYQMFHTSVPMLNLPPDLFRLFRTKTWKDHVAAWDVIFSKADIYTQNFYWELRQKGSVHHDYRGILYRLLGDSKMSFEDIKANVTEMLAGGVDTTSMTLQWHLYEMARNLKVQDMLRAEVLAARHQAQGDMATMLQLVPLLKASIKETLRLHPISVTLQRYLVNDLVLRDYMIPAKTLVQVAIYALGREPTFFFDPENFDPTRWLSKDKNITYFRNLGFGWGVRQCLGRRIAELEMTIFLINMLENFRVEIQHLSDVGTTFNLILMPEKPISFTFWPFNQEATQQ
Sequence (P00257 59-186 partner): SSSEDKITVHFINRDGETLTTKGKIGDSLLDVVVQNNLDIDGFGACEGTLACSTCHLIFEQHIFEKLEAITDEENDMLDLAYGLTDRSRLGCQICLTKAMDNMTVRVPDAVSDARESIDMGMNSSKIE
Assay: Single-turnover kinetics of P450 11A1 with [1,2-3H]-cholesterol (radio-HPLC)
Format: biochemical
Parameters: M A S T R S P R P F N E I P S P G D N; Met-Ala (N-terminal start residues in place of the transit peptide and Ile40) (N); made in house; host or cells: E. coli (P450 11A1 in C41(DE3); Adx and AdR in E. coli)
Settings: 10-fold excess (high) Adx, time 45 s
assayMetric: concentration in single-turnover reaction

Bench note: what concentration in single-turnover reaction did CC(=O)[C@H]1CC[C@H]2[C@@H]3CC=C4C[C@@H](O)CC[C@]4(C)[C@H]3CC[C@]12C [Pregnenolone] show?
4.002 µM

Then this molecule: CC(C)CC[C@@H](O)[C@](C)(O)[C@H]1CC[C@H]2[C@@H]3CC=C4C[C@@H](O)CC[C@]4(C)[C@H]3CC[C@]12C [20R,22R-(OH)2 Chol, (20R,22R)-Cholest-5-ene-3β,20,22-triol]
0 µM

Next record, please: CC(C)CC[C@@H](O)[C@@H](C)[C@H]1CC[C@H]2[C@@H]3CC=C4C[C@@H](O)CC[C@]4(C)[C@H]3CC[C@]12C [22R-OH Chol, 22R-hydroxycholesterol]
0.06928 µM

Quick one: CC(C)CCC[C@@H](C)[C@H]1CC[C@H]2[C@@H]3CC=C4C[C@@H](O)CC[C@]4(C)[C@H]3CC[C@]12C [Cholesterol]
0.4283 µM
